Consider the following compounds and their measured Decomposition efficiency of glycitin family in concentrated soybean protein readings.
- Test system: Crude diglycosidase
- Test Summary: Examination of pH in the conversion into isoflavone aglycons by diglycosidase using soybean materials
- Type: biochemical, Penicillium multicolor IAM7153
- Conditions: pH6.6; heat treatment of enzyme: no; reaction time 3 h
- Description: A substrate solution of 450 μL was prepared by suspending 50 mg of each soybean material (roasted soy flour (manufactured by Fuji Shokuryo K.K.), soymilk (manufactured by Gitoh Shokuhin K.K.), defatted soybean (manufactured by Fuji Seiyu K.K.), concentrated soybean protein (manufactured by Fuji Seiyu K.K.)), and adjusting the pH to 2 to 11 with hydrochloric acid or sodium hydroxide. […]
The reply should contain only the number, in %.

Check out these entries, answers already filled in.
[[record]]
structure_string = "COc1cc2c(=O)c(-c3ccc(O)cc3)coc2cc1O"
measurement_target = "Crude diglycosidase"
quantitative_readout = 60.3

[[record]]
structure_string = "COc1cc2c(=O)c(-c3ccc(O)cc3)coc2cc1O[C@@H]1O[C@H](COC(C)=O)[C@@H](O)[C@H](O)[C@H]1O"
measurement_target = "Crude diglycosidase"
quantitative_readout = 32.4

[[record]]
structure_string = "COc1cc2c(=O)c(-c3ccc(O)cc3)coc2cc1O[C@@H]1O[C@H](COC(=O)CC(=O)O)[C@@H](O)[C@H](O)[C@H]1O"
measurement_target = "Crude diglycosidase"
quantitative_readout = 0.4


Consider the record given below.
GET /values?readout=Decomposition efficiency of glycitin family in concentrated soybean protein&system=Crude diglycosidase&item= COc1cc2c(=O)c(-c3ccc(O)cc3)coc2cc1O[C@@H]1O[C@H](CO)[C@@H](O)[C@H](O)[C@H]1O
6.9

###

- System: Crude diglycosidase
- Test Summary: Examination of temperature in the conversion into isoflavone aglycons by diglycosidase using soybean materials
- Assay type: biochemical, Penicillium multicolor IAM7153
- Conditions: 45 °C; heat treatment of enzyme: no; 3 h
Consider the following compounds and their measured Decomposition efficiency of glycitin family in concentrated soybean protein readings.
The reply should contain only the number, in %.

[[record]]
structure_string = "COc1cc2c(=O)c(-c3ccc(O)cc3)coc2cc1O[C@@H]1O[C@H](CO)[C@@H](O)[C@H](O)[C@H]1O"
quantitative_readout = 18.8

[[record]]
structure_string = "COc1cc2c(=O)c(-c3ccc(O)cc3)coc2cc1O"
quantitative_readout = 49.6

[[record]]
structure_string = "COc1cc2c(=O)c(-c3ccc(O)cc3)coc2cc1O[C@@H]1O[C@H](COC(=O)CC(=O)O)[C@@H](O)[C@H](O)[C@H]1O"
quantitative_readout = 0.6


Consider the record given below.
Recorded Decomposition efficiency of glycitin family in concentrated soybean protein of COc1cc2c(=O)c(-c3ccc(O)cc3)coc2cc1O[C@@H]1O[C@H](COC(C)=O)[C@@H](O)[C@H](O)[C@H]1O , please.
31.0

###

- Test system: Crude diglycosidase
- Test Summary: Examination of temperature in the conversion into isoflavone aglycons by diglycosidase using soybean materials
- Assay type: biochemical, Penicillium multicolor IAM7153
- Conditions: 30 °C; heat treatment of enzyme: no; 6 h
Consider the following compounds and their measured Decomposition efficiency of glycitin family in concentrated soybean protein readings.
The reply should contain only the number, in %.

[[record]]
structure_string = "COc1cc2c(=O)c(-c3ccc(O)cc3)coc2cc1O[C@@H]1O[C@H](COC(C)=O)[C@@H](O)[C@H](O)[C@H]1O"
measurement_target = "Crude diglycosidase"
unit_annotation = "%"
quantitative_readout = 30.8

[[record]]
structure_string = "COc1cc2c(=O)c(-c3ccc(O)cc3)coc2cc1O[C@@H]1O[C@H](CO)[C@@H](O)[C@H](O)[C@H]1O"
measurement_target = "Crude diglycosidase"
unit_annotation = "%"
quantitative_readout = 28.4

[[record]]
structure_string = "COc1cc2c(=O)c(-c3ccc(O)cc3)coc2cc1O[C@@H]1O[C@H](COC(=O)CC(=O)O)[C@@H](O)[C@H](O)[C@H]1O"
measurement_target = "Crude diglycosidase"
unit_annotation = "%"
quantitative_readout = 0.5


Consider the record given below.
Recorded Decomposition efficiency of glycitin family in concentrated soybean protein of COc1cc2c(=O)c(-c3ccc(O)cc3)coc2cc1O , please.
40.3

###

Consider the following molecules and their measured Decomposition efficiency of glycitin family in soymilk readings.
- System: Crude diglycosidase
- Test Summary: Examination of pH in the conversion into isoflavone aglycons by diglycosidase using soybean materials
- Type: biochemical, Penicillium multicolor IAM7153
- Conditions: pH6.2, heat treatment of enzyme yes, reaction time 6 h, 55° C.
- Description: A substrate solution of 450 μL was prepared by suspending 50 mg of each soybean material (roasted soy flour (manufactured by Fuji Shokuryo K.K.), soymilk (manufactured by Gitoh Shokuhin K.K.), defatted soybean (manufactured by Fuji Seiyu K.K.), concentrated soybean protein (manufactured by Fuji Seiyu K.K.)), and adjusting the pH to 2 to 11 with hydrochloric acid or sodium hydroxide. […]
No unit in the answer, only the number.

Check out these entries, answers already filled in.
[[record]]
structure_string = "COc1cc2c(=O)c(-c3ccc(O)cc3)coc2cc1O[C@@H]1O[C@H](CO)[C@@H](O)[C@H](O)[C@H]1O"
quantitative_readout = 54.2

[[record]]
structure_string = "COc1cc2c(=O)c(-c3ccc(O)cc3)coc2cc1O"
quantitative_readout = 8.2


Consider the record given below.
Recorded Decomposition efficiency of glycitin family in soymilk of COc1cc2c(=O)c(-c3ccc(O)cc3)coc2cc1O[C@@H]1O[C@H](COC(=O)CC(=O)O)[C@@H](O)[C@H](O)[C@H]1O , please.
37.6

###

Consider the following compounds and their measured Decomposition efficiency of glycitin family in roasted soy flour readings.
- Test system: Crude diglycosidase
- Test Summary: Examination of temperature in the conversion into isoflavone aglycons by diglycosidase using soybean materials
- Assay type: biochemical, Penicillium multicolor IAM7153
- Parameters: concentration or dose not given beside the values
- Conditions: 30 °C; heat treatment of enzyme: no; 1 h
The reply should contain only the number, in %.

Recorded Decomposition efficiency of glycitin family in roasted soy flour of COc1cc2c(=O)c(-c3ccc(O)cc3)coc2cc1O[C@@H]1O[C@H](CO)[C@@H](O)[C@H](O)[C@H]1O , please.
34.8

Recorded Decomposition efficiency of glycitin family in roasted soy flour of COc1cc2c(=O)c(-c3ccc(O)cc3)coc2cc1O , please.
31.5

Recorded Decomposition efficiency of glycitin family in roasted soy flour of COc1cc2c(=O)c(-c3ccc(O)cc3)coc2cc1O[C@@H]1O[C@H](COC(C)=O)[C@@H](O)[C@H](O)[C@H]1O , please.
33.8

###

- Test system: Crude diglycosidase
- Test Summary: Examination of pH in the conversion into isoflavone aglycons by diglycosidase using soybean materials
- Format: biochemical, Penicillium multicolor IAM7153
- Conditions: pH5.4; heat treatment of enzyme: no; reaction time 0 h
Measured Endpoint: Decomposition efficiency of glycitin family in defatted soybean

[[record]]
structure_string = "COc1cc2c(=O)c(-c3ccc(O)cc3)coc2cc1O"
measurement_target = "Crude diglycosidase"
result = "36.0%"

[[record]]
structure_string = "COc1cc2c(=O)c(-c3ccc(O)cc3)coc2cc1O[C@@H]1O[C@H](CO)[C@@H](O)[C@H](O)[C@H]1O"
measurement_target = "Crude diglycosidase"
result = "not detected"

[[record]]
structure_string = "COc1cc2c(=O)c(-c3ccc(O)cc3)coc2cc1O[C@@H]1O[C@H](COC(=O)CC(=O)O)[C@@H](O)[C@H](O)[C@H]1O"
measurement_target = "Crude diglycosidase"
result = "64.0%"

[[record]]
structure_string = "COc1cc2c(=O)c(-c3ccc(O)cc3)coc2cc1O[C@@H]1O[C@H](COC(C)=O)[C@@H](O)[C@H](O)[C@H]1O"
measurement_target = "Crude diglycosidase"
result = "not detected"


###

- Tested on: Crude diglycosidase
- Test Summary: Examination of temperature in the conversion into isoflavone aglycons by diglycosidase using soybean materials
- Assay type: biochemical, Penicillium multicolor IAM7153
- Set-up: concentration or dose not given beside the values
- Conditions: 45 °C; heat treatment of enzyme: yes; 6 h
Measured Endpoint: Decomposition efficiency of glycitin family in roasted soy flour

Check out these entries, answers already filled in.
[[record]]
structure_string = "COc1cc2c(=O)c(-c3ccc(O)cc3)coc2cc1O"
result = "13.4%"

[[record]]
structure_string = "COc1cc2c(=O)c(-c3ccc(O)cc3)coc2cc1O[C@@H]1O[C@H](CO)[C@@H](O)[C@H](O)[C@H]1O"
result = "49.8%"


Consider the record given below.
Recorded Decomposition efficiency of glycitin family in roasted soy flour of COc1cc2c(=O)c(-c3ccc(O)cc3)coc2cc1O[C@@H]1O[C@H](COC(C)=O)[C@@H](O)[C@H](O)[C@H]1O , please.
36.8%

###

- Tested on: Crude diglycosidase
- Test Summary: Examination of temperature in the conversion into isoflavone aglycons by diglycosidase using soybean materials
- Assay type: biochemical, Penicillium multicolor IAM7153
- Parameters: concentration or dose not given beside the values
- Conditions: 45° C., heat treatment of enzyme yes, reaction time 6 h
Consider the following compounds and their measured Decomposition efficiency of glycitin family in defatted soybean readings.
The reply should contain only the number, in %.

[[record]]
structure_string = "COc1cc2c(=O)c(-c3ccc(O)cc3)coc2cc1O"
unit_annotation = "%"
quantitative_readout = 55.8


Recorded Decomposition efficiency of glycitin family in defatted soybean of COc1cc2c(=O)c(-c3ccc(O)cc3)coc2cc1O[C@@H]1O[C@H](COC(=O)CC(=O)O)[C@@H](O)[C@H](O)[C@H]1O , please.
44.2
